Value source: the NIST ThermoML archive (doi:10.1016/j.jct.2009.07.006)

details: 328.15 K; 22390 kPa; Liquid; Vibrating tube method
± gives the expanded uncertainty stated by the source.
assay metric: mass density
# output: numeric value plus its unit

A selection of reference data follows.
Cc1ccncc1 = 938.4 ± 0.3 kg/m3
c1ccncc1 = 964.2 ± 0.2 kg/m3
Cc1ccccn1 = 928.6 ± 0.8 kg/m3

Now let's try a different one.
Asked: Would you mind telling me what mass density value was observed for Cc1cccnc1 ?
Given back: 940.4 ± 0.3 kg/m3

----------
details: 318.15 K; 18340 kPa; Liquid; Vibrating tube method
Provide the reported mass density of each item.
Answers are plain numbers, in kg/m3.

Cc1ccccn1 [2-methylpyridine] = 934.4

Give mass density for all molecules that follow.
1. Cc1cccnc1 [3-methylpyridine]
2. Cc1ccncc1 [4-methylpyridine]
3. c1ccncc1 [pyridine]

Given back:
946.2
944.2
970.9
